Every entry's value here was drawn from PubChem BioAssay.

compounds and their reported GFP response, % of DMSO
Assay: AGP1-GFP expression modulators, hit retest, confirmation, cell-based, flow cytometry, S. cerevisiae, cherry picks (AID 2273);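 note: median GFP channel fluorescence over the whole cell population gate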
Conditions: S. cerevisiae AGP1-GFP strain, 3 h, at 10 µM
All answers are understood in %, so give the number only.

# example entries with known answers
[[record]]
compound = "Cc1cccc(CS(=O)(=O)c2ncc(Cl)c(C(=O)Nc3nnc(C(C)C)s3)n2)c1"
test_result = 102

[[record]]
compound = "CC(C)(C)C(=O)C(Cl)C(=O)Nc1ccccc1 (stereo not drawn)"
test_result = 135

[[record]]
compound = "COc1ccc(-c2csc(NC(=O)CSc3nc(C)nc4sc(C(=O)O)c(C)c34)n2)cc1"
test_result = 104

[[record]]
compound = "CCOC(=O)C1=C(C)N=C2SC(C(=O)OC)=CC(=O)N2C1c1ccc(F)cc1 (stereo not drawn)"
test_result = 90.2

[[record]]
compound = "Cc1occc1-c1nnc(-c2cc([N+](=O)[O-])cc([N+](=O)[O-])c2)o1"
test_result = 135

[[record]]
compound = "O=C(CSc1nc2ccsc2c(=O)n1CC1CCC(C(=O)O)CC1)c1ccc(F)cc1 (stereo not drawn)"
test_result = 94.6

[[record]]
compound = "Cc1cccc(NC(=S)NCC23C=CC(O2)C2C(=O)N(c4ccc(Cl)cc4)C(=O)C23)c1 (stereo not drawn)"
test_result = 100

[[record]]
compound = "Cc1cccc(Nc2nc(-c3ccccn3)cs2)n1"
test_result = 89.8


Per the records, this compound ( "Cc1ccc(NC(=O)c2nc(S(=O)(=O)Cc3ccccc3)ncc2Cl)cc1" ) has GFP response, % of DMSO equal to 100

Per the records, this compound ( "O=C(Nc1nc(-c2ccccc2)cs1)c1cccc([N+](=O)[O-])c1" ) has GFP response, % of DMSO equal to 108

Per the records, this compound ( CCCc1[nH]nc2c1C(c1ccccc1OC)C(C#N)=C(N)O2 (stereo not drawn) ) has GFP response, % of DMSO equal to 102

Per the records, this compound ( "O=C(O)c1ccc(Sc2ccccn2)c([N+](=O)[O-])c1" ) has GFP response, % of DMSO equal to 97

Per the records, this compound ( "NNC(=O)c1ccc(COc2ccc3ccccc3c2)cc1" ) has GFP response, % of DMSO equal to 94.9

Per the records, this compound ( "O=S(=O)(c1ccc(C2CCCCC2)cc1)N1CCOCC1" ) has GFP response, % of DMSO equal to 102

Per the records, this compound ( CS(=O)(=O)N1N=C(c2ccc(Br)cc2)CC1c1ccc2c(c1)OCO2 (stereo not drawn) ) has GFP response, % of DMSO equal to 99.3

Per the records, this compound ( "Cc1nn(Cc2ccccc2Cl)c(C)c1C(=O)NCc1ccco1" ) has GFP response, % of DMSO equal to 99.3

Per the records, this compound ( "Cc1ccc(C)c(Cn2ncc3ccccc32)c1" ) has GFP response, % of DMSO equal to 90.7

Per the records, this compound ( Cc1[nH]n(-c2ncc(-c3ccccc3)s2)c(=O)c1C(c1ccc(Cl)cc1)C(C#N)C#N (stereo not drawn) ) has GFP response, % of DMSO equal to 100

Per the records, this compound ( O=C(/C=C/c1ccccc1)C1=C(O)C(=O)N(CCO)C1c1cccc([N+](=O)[O-])c1 (stereo not drawn) ) has GFP response, % of DMSO equal to 103

Per the records, this compound ( "O=C(Nc1nc2ccc(F)cc2s1)c1ccccn1" ) has GFP response, % of DMSO equal to 107

Per the records, this compound ( "CCCCCCNC(=O)c1c(O)c2cccc3c2n(c1=O)CCC3" ) has GFP response, % of DMSO equal to 96.8

Per the records, this compound ( "Cc1c(C)c2ccc(OCC(=O)NCCCn3ccnc3)cc2oc1=O" ) has GFP response, % of DMSO equal to 97.6

Per the records, this compound ( "Clc1cnc(N/N=C/c2cccs2)c(Cl)c1" ) has GFP response, % of DMSO equal to 98.2

----------
Assay: LAP4-GFP expression modulators in yeast, confirmation, cell-based, cherry picks, flow cytometry, mother/daughter gates (AID 2271);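 note: ratio of sample to DMSO plate mean so 100% equals DMSO level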
Details: S. cerevisiae LAP4-GFP strain, 3 h, at 10 µM, stronger effect = higher value, 100 means same as DMSO control
compounds and their reported GFP response relative to DMSO
All answers are understood in %, so give the number only.

# example entries with known answers
[[record]]
compound = "COC(=O)Cc1csc(Nc2ccc(F)c(Cl)c2)n1"
observation_type = "GFP response relative to DMSO"
reading_unit = "%"
test_result = 97.4

[[record]]
compound = "CC(C)c1nnc(-c2ccc(Cl)cc2)c(N(C)C)n1"
observation_type = "GFP response relative to DMSO"
reading_unit = "%"
test_result = 98.9

[[record]]
compound = "COc1ccccc1NC(=O)c1ccc(N)cc1"
observation_type = "GFP response relative to DMSO"
reading_unit = "%"
test_result = 100

[[record]]
compound = "Cc1ccc(S(=O)(=O)N2C3C=CC(C3)C2C(=O)O)cc1 (stereo not drawn)"
observation_type = "GFP response relative to DMSO"
reading_unit = "%"
test_result = 95.3

[[record]]
compound = "CCCCCCNC(=O)c1c(O)c2cccc3c2n(c1=O)CCC3"
observation_type = "GFP response relative to DMSO"
reading_unit = "%"
test_result = 97.9


Per the records, this compound ( "Cc1cc(NCCCN2CCOCC2)n2nc(C)c(-c3ccc(F)cc3)c2n1" ) has GFP response relative to DMSO equal to 104

----------
Assay: modulators of MEP2-GFP levels in yeast, confirmation, S. cerevisiae, flow cytometry GFP, cherry picks (AID 2272);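 note: ratio of well signal to plate DMSO mean so 100% equals DMSO level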
Settings: S. cerevisiae MEP2-GFP strain, 3 h, at 10 µM
Active and inactive are the calls of the source.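 The calls were made as follows: active = GFP response above 150% of the DMSO control; inconclusive = Fewer than 70 cells counted for a yeast strain; inactive = the rest.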
Select the matching outcome among active, inactive

[[record]]
structure_smiles_string = "Cc1nc2c(-c3ccc(F)cc3)cnn2c(N)c1-c1ccccc1"
category = "inactive"

[[record]]
structure_smiles_string = "C[n+]1ccc(/C=C/c2c[nH]c3ccccc23)cc1"
category = "active"

[[record]]
structure_smiles_string = "NS(=O)(=O)c1ccc(S(=O)(=O)c2ccccc2)nc1"
category = "inactive"

[[record]]
structure_smiles_string = "COc1ccc(C(=O)NNC(=S)NC(=O)/C=C/c2cccs2)cc1"
category = "inactive"


query: Fill in: this test's call for "COc1ccc(CCN2C(=O)c3cccc4cccc(c34)C2=O)cc1OC" is ___
result: inactive

query: Fill in: this test's call for "NS(=O)(=O)c1ccc(Sc2ccccn2)c([N+](=O)[O-])c1" is ___
result: inactive

query: Fill in: this test's call for "COc1ccc(-c2cc(C(F)(F)F)nc(S(C)(=O)=O)n2)cc1" is ___
result: inactive

----------
Test: modulators of CIT2-GFP expression in yeast, confirmation, S. cerevisiae, GFP fusion, cherry picks, mother/daughter gates (AID 2274)
Conditions: S. cerevisiae CIT2-GFP strain, flow cytometry, 3 h; at 10 µM; stronger effect = higher value
compounds and their reported GFP response, % of DMSO
All answers are understood in %, so give the number only.

# example entries with known answers
[[record]]
structure_smiles_string = "O=C(Oc1oc(-c2ccco2)nc1C=Nc1ccccc1)c1ccco1"
reading_unit = "%"
test_result = 104

[[record]]
structure_smiles_string = "Cc1cc(NC(=O)c2cccnc2Cl)ccc1NC(=O)c1cc2ccccc2o1"
reading_unit = "%"
test_result = 103

[[record]]
structure_smiles_string = "O=C(OCC(=O)N1CCN(C(=O)c2ccco2)CC1)c1cc(-c2ccc(Cl)c(Cl)c2Cl)nc2ccccc12"
reading_unit = "%"
test_result = 115

[[record]]
structure_smiles_string = "Cc1cccc(/C(N)=N/OC(=O)C23CC4CC(CC(C4)C2)C3)c1"
reading_unit = "%"
test_result = 123


Next item in the queue.
Per the records, this compound ( "O=S(=O)(c1ccc(Cl)cc1)c1ccccn1" ) has GFP response, % of DMSO equal to 103

----------
compounds and their reported GFP response relative to DMSO
Assay: LAP4-GFP expression modulators in yeast, confirmation, cell-based, cherry picks, flow cytometry, mother/daughter gates (AID 2271);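 note: ratio of sample to DMSO plate mean so 100% equals DMSO level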
Details: S. cerevisiae LAP4-GFP strain, 3 h, measured here: daughter cell gate response, at 10 µM, stronger effect = higher value, 100 means same as DMSO control
Units required after the number.

# example entries with known answers
[[record]]
compound = "O=C(CNC(=O)c1ccncc1)N/N=C/c1cccc([N+](=O)[O-])c1"
observation_type = "GFP response relative to DMSO"
test_result = "97.6%"

[[record]]
compound = "COc1ccc(-c2ccc(SCC(=O)N3c4ccccc4CC3C)nn2)cc1OC (stereo not given)"
observation_type = "GFP response relative to DMSO"
test_result = "101%"

[[record]]
compound = "COc1ccc(N(CC(=O)N/N=C/c2cc(OC)ccc2OC)S(=O)(=O)c2ccccc2)cc1"
observation_type = "GFP response relative to DMSO"
test_result = "96%"

[[record]]
compound = "Cc1ccc2nc(Cl)c3nnnn3c2c1"
observation_type = "GFP response relative to DMSO"
test_result = "153%"

[[record]]
compound = "CNc1nc(-c2ccccc2)cc(C(F)(F)F)c1C#N"
observation_type = "GFP response relative to DMSO"
test_result = "95.6%"

[[record]]
compound = "O=[N+]([O-])c1cccc(-c2ccc(/C=N/Nc3nc(N4CCCCC4)nc(N4CCCCC4)n3)o2)c1"
observation_type = "GFP response relative to DMSO"
test_result = "114%"

[[record]]
compound = "Cn1c(=O)c2ccccc2n(Cc2cccc(F)c2)c1=O"
observation_type = "GFP response relative to DMSO"
test_result = "101%"

[[record]]
compound = "Cc1[nH]n(-c2ccccc2)c(=O)c1/C=N/Nc1nncc(-c2ccccc2)n1"
observation_type = "GFP response relative to DMSO"
test_result = "137%"

[[record]]
compound = "COc1cccc2cc(C(=O)N3CCN(C/C=C/c4ccccc4)CC3)c(=O)oc12"
observation_type = "GFP response relative to DMSO"
test_result = "95.9%"


Next item in the queue.
Per the records, this compound ( Cc1cccc(NC(c2ccc(C)s2)c2ccc3ccc(C)nc3c2O)n1 (stereo not given) ) has GFP response relative to DMSO equal to 141%
